Data origin: the Human Domainome abundance scans (Beltran et al. 2025)

B1: Membrane-associated guanylate kinase, WW and PDZ domain-containing protein 1, residues 352 to 401; numbered along this chain, Q96QZ7 (parent)
chain: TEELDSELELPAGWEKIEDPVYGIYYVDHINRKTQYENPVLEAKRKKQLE

Variants of: B1
measurementDescription: abundance fitness (aPCA) (normalised: wild type 0, dead -1); higher = more abundant; growth selection in yeast, the domain comes from the species named
measurementSetup: Homo sapiens
parameter: abundance fitness

[ask] Which value of abundance fitness has been reported for E18I in the records?
[reply] -0.196

[ask] Look at this variant and give its reported abundance fitness. G23C
[reply] -1.08

[ask] Look up abundance fitness for this variant: G23Q
[reply] -1.34

[ask] Value lookup for abundance fitness; key = R45K
[reply] 0.02

Further cases:
[ask] Query: abundance fitness; subject: E9T
[reply] -0.102

[ask] Need abundance fitness of K33C , thanks.
[reply] -0.074
